test: protein stability index of a GFP-peptide fusion (yeast GPS) (PSI 1-4); higher = more stable; sorted into four equal gates, so the index is relative within each strain; conditions: doa10∆
ASSAY ENDPOINT: protein stability index

VMIAEIPTLAIDSVEVE [RPB3] :: 2.3
AQFLRSVVHPGEMVGVL [RPO21] :: 2.23
LFQTIEKLINNSDDCMM [ECM29] :: 3.1
NIDTITDAMTESQPKQT [MCD1] :: 2.71
SQLAQVAAFVNNYPNVE [BRR2] :: 2.33
RQFLKANKTNLIESLNT [YML103C/NUP188] :: 2.76
VENIERVVMMKYDRKVP [RPO21] :: 2.29
PSLNPIPHFIDNNSSLN [PRP8] :: 2.3
KSRGSDLQYLGEFSGKN [RRP6] :: 3.13
VTKGGTVENPLRNWEEL [PRP28] :: 2.55
HMAKGLYYGSYRSPRVL [COB] :: 1.6
AESEWNGVNVQTLKGVG [RPC37] :: 1.23
VSSSLYERRFGPYFVGP [PUP3] :: 2.79
NKIDQSLQYIERQQDEL [YJL041W/NSP1] :: 3.18
EGNEKLAAVPAAGPASA [RPP2A] :: 2.06
LINLAKTRVGSVTAQVY [RPC82] :: 2.41
NGKDNNNESNKNNNGDE [MED2] :: 3.12
EKDASGKPSFVFGASDK [YOR098C/NUP1] :: 2.63
ADLMALENATWTMRIEG [SNF12] :: 2.94
LFEQLQTVSNKEDAKAT [SRP54] :: 3.41
PYAQKPLQGIFHNAVFN [QCR8] :: 2.75
TESIALSSMRFKPSQEP [RRI1] :: 2.85
MVQQLSLFGSIGDDGYD [SRB5] :: 3.17
DTLLLLPTDGGLTSRLQ [POP4] :: 3.01
LVELMFIRSTNSWFDVT [FAS1] :: 1.65
IKVPTYIRKLISSGLLY [SRB8] :: 1.38
RSKFLSTVAKFLARVIK [IRR1] :: 3.04
FIYDTEKNGGLGWDLDA [FAS2] :: 3.21
RDIFQEDEENSDVLLFQ [RGR1] :: 3.37
SCIAVMAGLMHFKKPDI [RRP45] :: 2.02
TGRLFQVEYALEAIKQG [PRE5] :: 2.94
NESSSNTTVISDKQRRL [DIS3] :: 3.15
KSIENPTQTKGNDAKPA [YLR335W/NUP2] :: 3.12
FMLSDDEGMESIEMEEE [RRI2] :: 2.59
LVSVVEAFIASGITDPY [FAS2] :: 1.42
VYAQQSTVQTPITASMA [PGD1] :: 1.59
TTDMISVLYQLSTSAFM [YML031W/NDC1] :: 1.42
KKWKKYWQYKAGIPIGL [SWP82] :: 1.94
CVEISHISKIIGLDTQQ [RPN6] :: 2.38
LLERGRLRKRVTIIPLD [SMC2] :: 2.25
IAKFERSEEEVTKLNVL [YIL149C/MLP2] :: 3.4
KAPEQFIENFLTNDTFE [YML103C/NUP188] :: 2.84
KKLKPIVAKYDPPIIIF [PRP28] :: 2.94
LADDDEERFSELFKGYL [RPL5] :: 1.59
VMLRLLLVVIFKKTLRS [SRB4] :: 1.59
ASSSPSSTDFSTCIVSL [ECM29] :: 2.81
NDFANNLPKEGDIVLTR [CSL4] :: 2.89
ARTATVSKKWAAAAVCE [RPL14A] :: 2.9
AVKRGTCAVGVKGKNCV [PRE6] :: 1.06
CSGSGMGGVSALRGMFK [FAS2] :: 3.64
KFADGFLIHSGQPVNDF [RPS3] :: 2.67
LIVRAKNHTHNLPGNIT [RRP4] :: 2.77
NNSAPNNTNNANSSITP [YJL041W/NSP1] :: 3.01
DAVKDFKLGKFNYVAVG [QCR2] :: 3.2
VAATNTPIIFIGTGEHI [SRP54] :: 2.17
GGQGNTDDYFEELRDLY [FAS1] :: 3.22
GHRMKNAQSKLSLTLNT [SNF2] :: 1.94
NENSNCLLSIPKSTKGK [YML103C/NUP188] :: 2.04
WLAAATATGIKVFSLDP [ASC1] :: 2.58
DSLNDDLNKENKLLRRK [YIL149C/MLP2] :: 2.98

---

assay: protein stability index of a GFP-peptide fusion (yeast GPS) (PSI 1-4); higher = more stable; sorted into four equal gates, so the index is relative within each strain; conditions: doa10∆
ASSAY ENDPOINT: protein stability index

LHKRLHGVSFKKRAPRA [RPL31A] :: 2.9
WSSLLNEGLVEYIDAEE [RPB2] :: 2.84
SFYRVEKIKKINYHQYI [SSN2] :: 1.18
TNGNNAGGGSNKSSVRP [MED6] :: 3.19
KGGIIASVGDILKTLER [YML031W/NDC1] :: 2.99
SYNWGAKAKRRHTTGTG [RPL37A] :: 3.37
SIQEQIQEFQGNPYIEL [SNF5] :: 3.16
GNYIKTENATENDQQDN [LIN1] :: 2.51
EEDDEGELEQAQAWINL [RPN7] :: 3.58
RSNFRVNLSQEALQYDP [SNU114] :: 2.69
TAVGKAAVVKTSSRQTV [RPT5] :: 3.39
VSTAKFSGKYLKYLTKK [RPL22A] :: 3.17
LEDMVFPTEIVGKRVRY [RPS7B] :: 1.57
NSSNYFGELQFAFLNAM [AAR2] :: 2.86

---

Listed here are sequences together with their documented protein stability index.
experiment: protein stability index of a GFP-peptide fusion (yeast GPS) (PSI 1-4); higher = more stable; sorted into four equal gates, so the index is relative within each strain; conditions: san1∆
ASSAY ENDPOINT: protein stability index

STNEDQNNSKHTEDTVN [SRB5] :: 1.65
LSAVAQAESMKFKLLNG [RPS3] :: 2.83
HVIQIPLNKPLLTEELA [TAF14] :: 2.49
NAKDKERLQLLEDVVGA [SMC3] :: 3.01
SVTETESISQTPISNEQ [SRP68] :: 2.82
ESKGNAFKHKRALVEHI [RPL19A] :: 3.44
GQHKNNTSLNINGWKFE [SWP82] :: 3.05
YGKVYKAKRQINSGTNS [SSN3] :: 2.49
VHVQLLINLKISPLMKS [SRB8] :: 1.55
RSSSASNEFVPNTSDNN [SWI1] :: 2.69
IAEGQKKFATVPTGGAS [RPP2B] :: 2.69
TLIVVPFNQGSKQDVEA [FAS2] :: 3.13
WVTEVLGNDIPHDLIIG [BRR2] :: 2.29
HPTVVDAIDNSDEITQD [IRR1] :: 3.23
ARERKTATYNDNMSEEQ [SNF2] :: 3.46
PTMYTRLCICSGMLFEM [SIN4] :: 1.39
KDLKDDSIYTKPVKVAL [YJL039C/NUP192] :: 2.73
HALYLAPSGIRMHLAPA [SSN2] :: 2.09
AIPSRMTVAHLIECLLS [RPB2] :: 1.39
QDNKQLYQIWIVMVWLK [YDL116W/NUP84] :: 3.02
MVSHKTARGKAALERLK [RPL16B] :: 2.47
ESNKRYRFFKKISEDPV [SNF12] :: 2.99
DMLTWVDSNLPDDEKFT [RPC40] :: 2.56
GNRYLEKRLNLRVEHIK [RPL21A] :: 3.08
LDPALLRPGRIDRKVEF [RPT1] :: 3.34
IFLHSLPVKEFQIIDTL [RPS2] :: 2.44
VKSEVDVQVDAEEKREA [ITC1] :: 3.12
LPHSPLWELALAFIPNI [YML031W/NDC1] :: 1.24
ETKSWINESAENFSNGI [MED1] :: 2.74
SNTVNANNYSSNIGNNS [YDL088C/ASM4] :: 3.33

---

test: protein stability index of a GFP-peptide fusion (yeast GPS) (PSI 1-4); higher = more stable; sorted into four equal gates, so the index is relative within each strain; details: pdr5∆
# key: entry, value: protein stability index
ASSAY ENDPOINT: protein stability index

AICRYANVIKALAFCEI [RRP4] :: 2.04
DVIAWKNVLANSIWGSS [ITC1] :: 2.95
AELDPSLRTPIAPKITP [SEC65] :: 3.05
SLKALASKYNCDKSVCR [RPL40A] :: 2.97
VPHYNRLDSYKVIEQPI [RPL25] :: 2.21
QYSLERNSPFWWTNSHH [PRP8] :: 2.79
QLYKRDPVSGAILVPMT [YJR042W/NUP85] :: 1.75
LARDTPSANNSSSIKST [RRP4] :: 2.91
KQINHQGEEEELIALNL [RPB4] :: 3.59
KSRPDRPKPVSPPCYII [SNF5] :: 3.08
TDAHTPLARNYIKSMDL [RPR2] :: 2.73
ADITDGNNTELTKTTVN [YCG1] :: 3.22
KTKAMSLSIEENIPVAL [POP1] :: 3.01
YITLKATFLKDDLPYYV [QCR2] :: 2.17
PPTDTNVEESVSKADIL [POP5] :: 3.18
